The entries below come with measured LD50 values attached.
- experiment: Mammalian Toxicity, peroral toxicity to rat
- Type: in vivo
- experimental context: in vivo, po, read-out: A.O. Rat LD50

Ask | Returns the measured LD50 for the input molecule. Input: CN(SN(C)C(=O)Oc1cccc2c1OC(C)(C)C2)C(=O)ON=C1CSCCS1
Reply | 20 mg/kg

---

- Tested on: Soy
- experiment: Phytotoxicity Test, soy
- experimental context: 2500 ppm spray, ten days
assay endpoint: Phytotoxicity: Soy
Form rule: numeric answer, no unit written next to it.

// below: answered compounds
INSERT INTO measurements (structure_notation, experimental_result) VALUES
  ('CSC(C)=NOC(=O)N(C)SN(C)C(=O)Oc1cccc2ccccc12', 2),
  ('C#CCOC(=O)N(C)SN(C)C(=O)ON=C1SC(C)(C)C(=O)N1C', 2),
  ('CSC(C)=NOC(=O)N(C)SN(C)C(=O)ON=C(C)SCCC#N', 1),
  ('CSC(C)=NOC(=O)N(C)SN(C)C(=O)Oc1cccc2c1OC(C)(C)C2', 2);

Ask | Returns the measured Phytotoxicity: Soy for the input compound. Input: C#CCOC(=O)N(C)SN(C)C(=O)Oc1ccc(C)c(C)c1
Reply | 2

---

- Test system: Soy
- experiment: Phytotoxicity Test, soy
- experimental context: 2500 ppm spray, ten days
The entries below come with measured Phytotoxicity: Soy values attached.
Form rule: numeric answer, no unit written next to it.

// below: answered compounds
INSERT INTO assay_data (structure_notation, experimental_result) VALUES
  ('CSC(C)=NOC(=O)N(C)SN(C)C(=O)Oc1ccc(Oc2ccccc2)cc1', 1),
  ('CCCCCCCCCc1ccc(OC(=O)N(C)SN(C)C(=O)ON=C(C)SC)cc1', 1);

In the following, a different compound is considered.
Ask | Phytotoxicity: Soy of CSC(C)=NOC(=O)N(C)SN(C)C(=O)Oc1ccccc1C1OCCO1 on Soy?
Reply | 2

---

- experiment: Mammalian Toxicity, peroral toxicity to rat
- Assay type: in vivo
- experimental context: in vivo, po, read-out: A.O. Rat LD50
- Method: Certain compounds were also evaluated to determine their peroral toxicity to mammals by conventional methods. The representative animal selected for this experiment was the rat.
assay endpoint: LD50 (mg/kg)
Answer in mg/kg, number only, no unit symbol.

INSERT INTO results (structure_notation, assay_endpoint, endpoint_unit, experimental_result) VALUES
  ('COC(=O)Nc1ccc(OC(=O)N(C)SN(C)C(=O)ON=C(C)SC)cc1C(C)C', 'LD50', 'mg/kg', 28.3),
  ('CSC(C)=NOC(=O)N(C)SN(C)C(=O)Oc1ccccc1C1SCCS1', 'LD50', 'mg/kg', 50.4),
  ('CSC(C)=NOC(=O)N(C)SN(C)C(=O)Oc1ccc(C(C)(C)C)cc1', 'LD50', 'mg/kg', 226),
  ('CSC(C)(C)C=NOC(=O)N(C)SN(C)C(=O)Oc1cccc2ccccc12', 'LD50', 'mg/kg', 2.97);

Ask | Returns the measured LD50 for the input compound. Input: CSC(C)=NOC(=O)N(C)SN(C)C(=O)ON=C1CSCCS1
Reply | 190

Ask | Returns the measured LD50 for the input compound. Input: CCOC(=O)C(=NOC(=O)N(C)SN(C)C(=O)ON=C(C)SC)SC
Reply | 160

Ask | Returns the measured LD50 for the input compound. Input: CSC(C)=NOC(=O)N(C)SN(C)C(=O)Oc1cccc2c1CCCC2
Reply | 285

Ask | Returns the measured LD50 for the input compound. Input: CSC(C)=NOC(=O)N(C)SN(C)C(=O)Oc1ccccc1OC(C)C
Reply | 63.5

---

The entries below come with measured Phytotoxicity: Corn values attached.
- Tested on: Corn
- experiment: Phytotoxicity Test, corn
- experimental context: 2500 ppm spray, ten days
Form rule: numeric answer, no unit written next to it.

// below: answered molecules
INSERT INTO measurements (molecule, tgt, experimental_result) VALUES
  ('C#CCOC(=O)N(C)SN(C)C(=O)ON=C1SC(C)(C)C(=O)N1C [IV]', 'Corn', 1),
  ('CN(SN(C)C(=O)Oc1cccc2ccccc12)C(=O)ON=C1CSCCS1 [XXII]', 'Corn', 1),
  ('CSC(C)=NOC(=O)N(C)SN(C)C(=O)Oc1ccc(SC)c(C)c1 [XV]', 'Corn', 1),
  ('C#CCOC(=O)N(C)SN(C)C(=O)Oc1ccc(C)c(C)c1 [XXVII]', 'Corn', 1);

In the following, a different molecule is considered.
Ask | Returns the measured Phytotoxicity: Corn for the input molecule. Input: COC(=O)Nc1ccc(OC(=O)N(C)SN(C)C(=O)ON=C(C)SC)cc1C(C)C [XVI]
Reply | 1

---

- Test system: Bean
- experiment: Phytotoxicity Test, bean
- experimental context: 2500 ppm spray, ten days
assay endpoint: Phytotoxicity: Bean

// below: answered compounds
INSERT INTO results (structure_notation, assay_endpoint, experimental_result) VALUES
  ('C#CCOC(=O)N(C)SN(C)C(=O)Oc1cccc2ccccc12', 'Phytotoxicity: Bean', 1),
  ('CSC(C)=NOC(=O)N(C)SN(C)C(=O)Oc1cccc2c1CCCC2', 'Phytotoxicity: Bean', 1),
  ('CSC(C)(C)C=NOC(=O)N(C)SN(C)C(=O)Oc1cccc2ccccc12', 'Phytotoxicity: Bean', 1),
  ('CSC(C)=NOC(=O)N(C)SN(C)C(=O)Oc1cccc(N(C)C)c1', 'Phytotoxicity: Bean', 1);

Ask | Returns the measured Phytotoxicity: Bean for the input compound. Input: CSC(C)=NOC(=O)N(C)SN(C)C(=O)ON=C1CSCCS1
Reply | 1

Ask | Returns the measured Phytotoxicity: Bean for the input compound. Input: CSC(C)=NOC(=O)N(C)SN(C)C(=O)Oc1ccc(-c2ccccc2)cc1
Reply | 2

---

- experiment: Mammalian Toxicity, peroral toxicity to rat
- Type: in vivo
- experimental context: in vivo, po, read-out: A.O. Rat LD50
- Description: Certain compounds were also evaluated to determine their peroral toxicity to mammals by conventional methods. The representative animal selected for this experiment was the rat.
# Satisfied = LD50 below 200 mg/kg (exclusive); Not satisfied = LD50 at/above 200 mg/kg

Reference set, count: 7
INSERT INTO measurements (compound, assigned_category) VALUES
  ('CSC(C)=NOC(=O)N(C)SN(C)C(=O)Oc1cccc2c1OC(C)(C)C2 [Example V]', 'Satisfied'),
  ('CSC(C)=NOC(=O)N(C)SN(C)C(=O)Oc1ccc([N+](=O)[O-])cc1 [XII]', 'Not satisfied'),
  ('CSC(C)=NOC(=O)N(C)SN(C)C(=O)Oc1ccc(C(C)C)cc1 [VIII]', 'Satisfied'),
  ('CSC(C)=NOC(=O)N(C)SN(C)C(=O)Oc1cccc2ccccc12 [VII]', 'Satisfied'),
  ('CSC(C)=NOC(=O)N(C)SN(C)C(=O)ON=C(SC)C(=O)N(C)C [XI]', 'Satisfied'),
  ('CSC(C)=NOC(=O)N(C)SN(C)C(=O)Oc1cccc(C(C)C)c1 [XXVIII]', 'Satisfied'),
  ('CN(SN(C)C(=O)Oc1cccc2ccccc12)C(=O)ON=C1CSCCS1 [XXII]', 'Not satisfied');

Now take the following compound into account.
Ask | Strictly below 200 mg/kg in LD50? CSC(C)=NOC(=O)N(C)SN(C)C(=O)Oc1cc(C)c(C)c(C)c1 [XVIII]
Reply | Satisfied

---

- Test system: Soy
- experiment: Phytotoxicity Test, soy
- experimental context: 2500 ppm spray, ten days
The entries below come with measured Phytotoxicity: Soy values attached.
Form rule: numeric answer, no unit written next to it.

// below: answered compounds
INSERT INTO assay_data (compound, assay_endpoint, experimental_result) VALUES
  ('CSC(C)=NOC(=O)N(C)SN(C)C(=O)Oc1ccc(C(C)(C)C)cc1Cl [XXIX]', 'Phytotoxicity: Soy', 1),
  ('CN(SN(C)C(=O)ON=C1SC(C)(C)C(=O)N1C)C(=O)ON=C1CSCCS1 [Example III]', 'Phytotoxicity: Soy', 2),
  ('C#CCOC(=O)N(C)SN(C)C(=O)Oc1cccc2ccccc12 [XXVI]', 'Phytotoxicity: Soy', 2),
  ('CSC(C)=NOC(=O)N(C)SN(C)C(=O)Oc1ccc(-c2ccccc2)cc1 [XXXII]', 'Phytotoxicity: Soy', 1),
  ('CSC(C)=NOC(=O)N(C)SN(C)C(=O)Oc1cccc(N(C)C)c1 [XX]', 'Phytotoxicity: Soy', 2);

In the following, a different compound is considered.
Ask | Returns the measured Phytotoxicity: Soy for the input compound. Input: CSC(C)=NOC(=O)N(C)SN(C)C(=O)Oc1ccccc1C1SCCS1 [XXXVI]
Reply | 1

---

- Test system: Bean
- experiment: Phytotoxicity Test, bean
- experimental context: 2500 ppm spray, ten days
assay endpoint: Phytotoxicity: Bean
Form rule: numeric answer, no unit written next to it.

INSERT INTO measurements (structure_notation, experimental_result) VALUES
  ('CSC(C)=NOC(=O)N(C)SN(C)C(=O)Oc1ccc(C(C)(C)C)cc1', 1),
  ('CCCCCCCCCc1ccc(OC(=O)N(C)SN(C)C(=O)ON=C(C)SC)cc1', 1),
  ('CSC(C)=NOC(=O)N(C)SN(C)C(=O)Oc1cccc2c1OC(C)(C)C2', 2);

Ask | Phytotoxicity: Bean of CSC(C)=NOC(=O)N(C)SN(C)C(=O)ON=C(C)C(=O)c1ccccc1 on Bean?
Reply | 1

The origin of these recorded values is patent US4551472A.
